B1: library; a variant is named by its letters at N, in order (parent)
chain: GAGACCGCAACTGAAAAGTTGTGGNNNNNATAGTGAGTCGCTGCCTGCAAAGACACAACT

Variants of: B1
Experiment: ligation selection enrichment (abundance after / before one-round selection) (fold); higher = more template-directed ligation activity
Settings: with T7Psub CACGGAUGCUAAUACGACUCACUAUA; MgCl2 25 mM; 42 °C; 4 h; pH 8.5
Exercise: state measured ligation selection enrichment for each of the variants provided.

Sample answers from the record:
INSERT INTO measurements (mutation_spec, endpoint_name, result) VALUES
  ('TGGGC', 'ligation selection enrichment', 0.171),
  ('TTGAA', 'ligation selection enrichment', 1.56);

Give ligation selection enrichment for all variants that follow.
1. GGCGC
2. CGTCC
3. TCGGG

output:
0.293
0.192
0.41
